system-under-test: T1, soluble human Lag3-IgG1-Fc with biotinylated C-terminal Avi-tag (human, biotin on the C-terminal Avi-tag)
T1 construct: also called LAG3-Fc-avi; biotinylated LAG3-Fc antigen
protocol-text: A375 MHCII competition ELISA at 3 µg/ml, biotinylated Lag3 250 ng/ml; competitor MHCII on A375 cells
property: % Inhibition (%)
Answers are plain numbers, in %.

Query :: Which measured % Inhibition value corresponds to bivalent 9B4 aVH-Fc (Fc fusion) EVQLVESGGGLVQPGGSLRLSCAASGFNIKDTCIGWVRRAPGKGTELVAEICQDIGYTRYADSVKGRFTISADTSKNTAYLQMNSLRAEDTAVYYCAAVEVAEYFEYWGQGTTVTVSSGGGGSGGGGSDKTHTCPPCPAPEAAGGPSVFLFPPKPKDTLMISRTPEVTCVVVDVSHEDPEVKFNWYVDGVEVHNAKTKPREEQYNSTYRVVSVLTVLHQDWLNGKEYKCKVSNKALGAPIEKTISKAKGQPREPQVYTLPPSRDELTKNQVSLTCLVKGFYPSDIAVEWESNGQPENNYKTTPPVLDSDGSFFLYSKLTVDKSRWQQGNVFSCSVMHEALHNHYTQKSLSLSPGK ?
Result :: 95.5
